EC50 by entry:
- system: T1, human alpha2-Antiplasmin (human, UniProt P08697 40-491)
- T1 construct: Bought (antibodies online, ABIN2544306); also called human A2AP; a2AP
- T1 sequence: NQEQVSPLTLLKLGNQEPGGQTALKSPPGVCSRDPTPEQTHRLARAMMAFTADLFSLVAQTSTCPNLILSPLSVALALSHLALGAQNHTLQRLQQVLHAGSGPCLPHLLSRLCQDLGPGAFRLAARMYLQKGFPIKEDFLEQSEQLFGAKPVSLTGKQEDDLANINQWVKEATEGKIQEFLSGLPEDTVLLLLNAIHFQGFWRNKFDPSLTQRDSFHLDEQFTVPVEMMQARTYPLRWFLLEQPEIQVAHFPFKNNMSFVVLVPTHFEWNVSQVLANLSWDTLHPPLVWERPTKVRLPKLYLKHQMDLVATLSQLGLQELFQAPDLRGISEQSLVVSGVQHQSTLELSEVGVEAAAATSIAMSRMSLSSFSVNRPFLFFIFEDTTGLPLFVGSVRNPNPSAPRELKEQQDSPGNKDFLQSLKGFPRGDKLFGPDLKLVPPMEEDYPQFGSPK
- method notes: ELISA, coated antigen, quantified unpurified antibody, 1st exp.
Answer in nM, number only, no unit symbol.

| binder | EC50 (nM) |
| --- | --- |
| TPP-17053 hIgG1 (antibody, V domains shown, Germline variant of TPP-14308) VH: EVQLLESGGGLVQPGGSLRLSCAASGFTFDDYAMSWVRQAPGKGLEWVSAIGSGGSTYYADSVKGRFTISRDNSKNTLYLQMNSLRAEDTAVYYCAREGYDSSGYYHLDYWGQGTLVTVSS VL: QSVLTQPPSASGTPGQRVTISCTGSSSNIGATYDVHWYQQLPGTAPKLLIYSNNQRPSGVPDRFSGSKSGTSASLAISGLRSEDEADYYCAAWDWSLSGWVFGGGTKLTVLG | 0.52 |

Consider the additional binder presented here.
// TPP-17041 hIgG1 (antibody, V domains shown, Germline variant of TPP-14308) VH: EVQLLESGGGLVQPGGSLRLSCAASGFTFSDYAMSWVRQAPGKGLEWVSAIGTGGGTYYADSVKGRFTISRDNSKNTLYLQMNSLRAEDTAVYYCAREGYDSSGYYHLDYWGQGTLVTVSS VL: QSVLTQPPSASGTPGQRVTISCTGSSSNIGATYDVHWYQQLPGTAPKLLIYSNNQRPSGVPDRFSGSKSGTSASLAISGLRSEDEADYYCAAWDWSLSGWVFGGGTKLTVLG : EC50 value = 0.19
